- procedure_summary: qHTS assay to identify small molecule agonists of H2AX - cell viability counter screen (AID 1224847);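 further: wild-type CHO-K1 cells; top concentration of the series differs between compounds; on the % scale 0 is the no-effect control and ±100 the full control effect; nearly all actives have a fitted effect of over 30% in size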
- stated_conditions: CHO-K1 viability, CellTiter-Glo luminescence, 3 h; series mostly up to 154 µM
Records with an inconclusive call do not appear. Calls of active or inactive are those of the source. The call rests on the fitted dose curve.
measurement_type: activity change, negative = cytotoxicity

{"columns": ["compound", "activity change, negative = cytotoxicity"],
 "data": [
  ["CCCCCCC(O)CO (stereo unspecified)", "inactive"],
  ["O=c1c(O)c(O)c1=O", "inactive"],
  ["Nc1cc(S(=O)(=O)O)ccc1O", "inactive"],
  ["CCCCCCCCCCCCCCCCN(C)C", "-3.36% [at 14 µM] (inactive)"],
  ["CCCCOCCCC", "inactive"]
]}

Next, consider the following compound.
q: Fill in: activity change, negative = cytotoxicity of CNC(C)=O is ___
a: inactive

* * *

- procedure_summary: qHTS assay to identify small molecule antagonists of the estrogen related receptor signaling pathway with the pleiotropic PPARgamma coactivator (PGC) from Tox21 10K library - cell viability counter screen (AID 1224840); further: on the % scale 0 is the no-effect control and ±100 the full control effect; nearly all actives have a fitted effect of over 40% in size
- stated_conditions: PGC/ERR reporter cells viability, CellTiter-Fluor, 17.5 h; series mostly up to 92.4 µM
Results filed as inconclusive are left out. Calls of active or inactive are those of the source. The call rests on the fitted dose curve; in most records, active means well fitted cell-killing curve with a large enough effect in the repeat runs (not every such curve was filed as active); inconclusive means weak or mixed curves, or effect the other way; inactive means no such curve, though single readings can be large or run the other way.
measurement_type: viability change, negative = cytotoxic

Use the examples below as a reference point.
{"columns": ["molecule", "result"],
 "data": [
  ["CCOC(=O)CC(C(C)=O)C(C)=O", "inactive"],
  ["C[C@H]1COc2c(C3(N)CC3)c(F)cc3c(=O)c(C(=O)O)cn1c23", "inactive"],
  ["C/C=C(\\C)C(=O)OC/C=C(\\C)CCC=C(C)C", "inactive"],
  ["CCCCOCCCC", "inactive"]
]}

Dear reader, for each entry below, please note its viability change, negative = cytotoxic.
1. COC(=O)N/N=C/c1c[n+]([O-])c2ccccc2[n+]1[O-]
2. CC1(C)C(=O)C(C)(C)C1=O

a:
inactive
inactive

Dear reader, for each entry below, please note its viability change, negative = cytotoxic.
1. CCCCCCCCCCCCCCCC(=O)OC
2. CC(=O)OCC(=O)[C@@]1(O)CC[C@H]2[C@@H]3CCC4=CC(=O)C=C[C@]4(C)[C@H]3[C@@H](O)C[C@@]21C
3. CC/C=C\CCOC(=O)c1ccccc1
4. CC(C)(C)OC=O

a:
1: 5.32% [at 19 µM] (inactive); 2: inactive; 3: inactive; 4: inactive

Dear reader, for each entry below, please note its viability change, negative = cytotoxic.
1. CN1CCN(C(=O)C2CCCCC2)CC1
2. N=C(N)N
3. COC(=O)c1c(C)cc(O)c(C)c1O
4. O=C1Nc2ccccc2C1=O
5. CCCC(=O)OC
6. CC1=C(O)C(=O)CO1

a:
1: inactive; 2: inactive; 3: inactive; 4: inactive; 5: inactive; 6: inactive

* * *

- procedure_summary: qHTS assay to identify small molecule antagonists of the TGF-beta/Smad signaling pathway - cell viability counter screen (AID 1346824); further: on the % scale 0 is the no-effect control and ±100 the full control effect; nearly all actives have a fitted effect of over 50% in size
- stated_conditions: SBE-bla HEK293T viability, CellTiter-Glo luminescence; series mostly up to 76.8 µM
Inconclusive results are not listed. Calls of active or inactive are those of the source. Calls follow the shape of the dose curve; as a rule, active = well fitted cell-killing curve with a large enough effect in the repeat runs; inconclusive = weak or mixed curves; inactive = flat fitted curve, though single readings scatter.
measurement_type: viability change, negative = cytotoxic

Use the examples below as a reference point.
{"columns": ["compound", "result"],
 "data": [
  ["CCC(C)c1nccnc1OC (stereo unspecified)", "inactive"],
  ["CC(=O)O[C@@H]1CC2C3CCc4cc(OC(=O)c5ccccc5)ccc4C3CCC2(C)[C@H]1OC(C)=O (stereo partly specified)", "inactive"],
  ["CC/C=C/CCCCCCCCCCOC(C)=O", "inactive"],
  ["CCCCCCCCCCCCCCCCN(C)C", "3.18% [at 6.97 µM] (inactive)"]
]}

Dear reader, for each entry below, please note its viability change, negative = cytotoxic.
1. CC(C)(C)c1ccc(N)cc1
2. CN(C)CCC[C@@]1(c2ccc(F)cc2)OCc2cc(C#N)ccc21

a:
1. inactive
2. inactive
